# System: spinal cord-injured rats
# Assay Text: Inhibitory activity on detrusor hyperreflexia (cystometry test)
# Assay type: in vivo, rat
# Condition Description: 1 mg/kg p.o., after 1 hr., average ± standard error
Assay Endpoint: micturition contractions (relative value, before administration = 100) (%)
Output spec: scalar in %, unitless text.

// micturition contractions (relative value, before administration = 100) lookup, compound = "CC(C)(C)C(=O)Nc1cccc2c1C(=O)c1sccc1CO2" , result: 96.8

What the record says about "CC(C)(C(=O)[O-])C(=O)Nc1cccc2c1C(=O)c1sccc1CS2(=O)=O.[Na+]" : micturition contractions (relative value, before administration = 100) is 109.3

What the record says about CC(O)(C(=O)Nc1ccc(Cl)c2c1C(=O)c1sccc1CS2(=O)=O)C(F)(F)F (stereo not shown) : micturition contractions (relative value, before administration = 100) is 96.8

For "C[C@](O)(C(=O)Nc1cccc2c1C(=O)c1sccc1CO2)C(F)(F)F" the compound record lists micturition contractions (relative value, before administration = 100) as 95.5
